Experimental protocol: Cytotoxicity against human Huh-7 cells
Assay type: toxicity, cell-based

Smiles input: CCN(CC)CCNC(=O)c1c(C)[nH]c(/C=C2\C(=O)Nc3ccc(F)cc32)c1C
Qualifier operator: =
CC50 (µM): 11.5
//
Smiles input: N#Cc1ccc(-c2cnc3[nH]cc(NC(=O)c4cccnc4)c3c2)cc1
Qualifier operator: >
CC50 (µM): 50

----------
System tested: UniProt:Q2M2I8
Sequence (Q2M2I8 whole entry): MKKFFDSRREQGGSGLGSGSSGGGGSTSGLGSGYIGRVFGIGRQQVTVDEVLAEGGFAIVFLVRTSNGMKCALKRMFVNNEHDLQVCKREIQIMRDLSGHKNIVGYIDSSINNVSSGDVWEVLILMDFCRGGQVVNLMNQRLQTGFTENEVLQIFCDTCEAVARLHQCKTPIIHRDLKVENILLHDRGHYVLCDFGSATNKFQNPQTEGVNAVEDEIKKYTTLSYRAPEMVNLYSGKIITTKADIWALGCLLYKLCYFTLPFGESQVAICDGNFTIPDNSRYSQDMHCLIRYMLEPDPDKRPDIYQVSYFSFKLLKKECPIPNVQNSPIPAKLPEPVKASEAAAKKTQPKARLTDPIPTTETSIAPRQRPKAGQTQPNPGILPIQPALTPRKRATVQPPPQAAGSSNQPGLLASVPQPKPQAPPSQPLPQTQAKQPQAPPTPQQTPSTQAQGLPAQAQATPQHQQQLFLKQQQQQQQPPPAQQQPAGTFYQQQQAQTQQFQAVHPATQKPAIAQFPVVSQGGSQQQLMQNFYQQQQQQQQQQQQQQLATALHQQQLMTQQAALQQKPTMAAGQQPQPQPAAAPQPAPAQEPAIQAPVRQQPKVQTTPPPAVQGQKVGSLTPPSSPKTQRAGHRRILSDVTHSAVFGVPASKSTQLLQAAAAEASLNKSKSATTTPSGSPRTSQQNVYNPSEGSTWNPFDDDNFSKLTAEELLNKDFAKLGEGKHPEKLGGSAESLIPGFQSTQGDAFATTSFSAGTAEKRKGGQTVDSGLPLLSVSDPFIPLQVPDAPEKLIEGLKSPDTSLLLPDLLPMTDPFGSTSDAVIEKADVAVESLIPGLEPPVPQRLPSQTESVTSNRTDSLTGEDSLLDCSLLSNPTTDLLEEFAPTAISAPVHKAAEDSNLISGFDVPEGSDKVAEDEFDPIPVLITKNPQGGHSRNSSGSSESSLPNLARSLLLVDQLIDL
Experimental protocol: Inhibition of AAK1 (unknown origin)
pIC50: −log10 of the molar value.

Smiles input: CC(C)C[C@](C)(N)COc1ccc(-c2ccnc(C(F)F)c2)nc1C(F)F
pIC50: 8.92

----------
Tested on: Ebolavirus
Experimental protocol: Antiviral activity against EBOV
Format: functional, organism-based
Measurement conditions: Orthoebolavirus
Measured attribute: EC50

Smiles input: N#Cc1ccc(-c2cnc3[nH]cc(NC(=O)c4cccnc4)c3c2)cc1
Result: > 10 µM

----------
System tested: UniProt Q2M2I8
Assay type: cell-based
Measured attribute: IC50

Molecule: COc1ccc(-c2cnc3[nH]cc(C#Cc4cccnc4)c3c2)cc1OC
Result: 7.57 nM
--
Molecule: C(#Cc1c[nH]c2ncc(-c3ccc4c(c3)OCC3COCCN43)cc12)c1ccccc1 (stereo not drawn)
Result: > 500 nM
--
Molecule: NCCCC#Cc1c[nH]c2ncc(-c3ccc4c(c3)OCC3COCCN43)cc12 (stereo not drawn)
Result: > 500 nM
